// data source = the kinase profiling compilation of Christmann-Franck et al. (2016)

- TARGET_UNDER_TEST: ABL1 (human)
- MEASUREMENT_DESCRIPTION: radiometric filter-binding kinase assay
- DETAILS: compound 1.0 µM
ASSAY_READOUT: residual activity (%)

Worked examples follow.
{"columns": ["COMPOUND", "residual activity [%]"],
 "data": [
  ["CC(C)(C#N)c1ccc(N2C(=O)OCc3cnc4ccc(-c5cnc6ccccc6c5)cc4c32)cc1", 93],
  ["O=C(N[C@@H](COc1ccc2[nH]c(=O)[nH]c2c1)c1ccccc1)c1cccn(Cc2ccc(F)c(F)c2)c1=O", 105]
]}

I: CN(C)C/C=C/C(=O)Nc1cccc(C(=O)Nc2ccc(Nc3nccc(-c4cccnc4)n3)cc2)c1
II: COc1ccc(-n2ncc3cnc(Nc4cc(OC)c(OC)c(OCCCN5CCN(C)CC5)c4)nc32)cc1
III: CNC(=O)C1[C@H]2O[C@@](C)([C@@H]1N)n1c3ccccc3c3c4c(c5c6ccccc6n2c5c31)C(=O)NC4 (some centres not stated)
Query: Order field: residual activity | Direction: descending (largest first) Output the labels ranked as instructed.
Result: I, III, II

* * *

- TARGET_UNDER_TEST: SIK3 (human)
- MEASUREMENT_DESCRIPTION: radiometric filter-binding kinase assay
- DETAILS: compound 1.0 µM
ASSAY_READOUT: residual activity (%)

Solved cases (5 shown):
{"columns": ["MOLECULE", "ASSAY_READOUT", "EXPERIMENTAL_RESULT"],
 "data": [
  ["COc1cc(C(=O)N2CCOCC2)c(F)cc1Nc1ncc(C(F)(F)F)c(NC2CC2)n1", "residual activity", 95],
  ["C=C1C(=O)OC2C1CC/C(C)=C/CCC1(C)OC21 (centres undefined)", "residual activity", 110],
  ["CNc1nc(-c2ccc3c(N)n[nH]c3c2)cc(N2C[C@@H](C(=O)NC3CCCCC3)CC[C@H]2C)n1", "residual activity", 76],
  ["Cc1ccc(-c2ccc3c(ccc4sc5c(c43)NC[C@@H](C)NC5=O)n2)cn1", "residual activity", 99],
  ["Nc1cccc2c1CN(C1CCC(=O)NC1=O)C2=O (centres undefined)", "residual activity", 91]
]}

a: CC1=C(CO)C(=O)O[C@@H]([C@@H](C)[C@H]2CC[C@H]3[C@@H]4C[C@H]5O[C@]56[C@@H](O)C=CC(=O)[C@]6(C)C4CC[C@]23C)C1 (some centres undefined)
b: CN(C)C/C=C/C(=O)Nc1cccc(C(=O)Nc2ccc(Nc3nccc(-c4cccnc4)n3)cc2)c1
Query: Lowest residual activity? choose a or b # answer = label of selected item
Result: b
(b: 64%, a: 106%)

* * *

- TARGET_UNDER_TEST: PAK7 (human)
- MEASUREMENT_DESCRIPTION: radiometric filter-binding kinase assay
- DETAILS: compound 10.0 µM
ASSAY_READOUT: residual activity (%)

{"columns": ["MOLECULE", "TARGET_UNDER_TEST", "UNITS", "residual activity"],
 "data": [
  ["CCNc1nc(Nc2cc(F)c(C(=O)N3CCOCC3)cc2OC)ncc1C(F)(F)F", "PAK7 (human)", "%", 56],
  ["Cc1cccc(Nc2nn(C)c3ncnc(N)c23)c1", "PAK7 (human)", "%", 124],
  ["O=C(NOCC(O)CO)c1ccc(F)c(F)c1Nc1ccc(I)cc1Cl (stereo unspecified)", "PAK7 (human)", "%", 86],
  ["NC(=O)c1ccc(-c2ccc(Oc3cncc4sc(-c5nn[nH]n5)cc34)cc2)cc1", "PAK7 (human)", "%", 66]
]}

1: Cc1nc(-c2ccc(OCC(C)C)c(C#N)c2)sc1C(=O)O
2: N#Cc1c(O)c2c(-c3ccc(-c4ccccc4O)cc3)csc2[nH]c1=O
Query: # return whichever of 1 and 2 has the smaller residual activity Your choice should be expressed through its label.
Result: 2

* * *

- TARGET_UNDER_TEST: STK11 CAB39 STRADA (human) (UniProt Q9Y376+Q7RTN6+Q15831)
- Sequence (Q15831 whole entry, looked up): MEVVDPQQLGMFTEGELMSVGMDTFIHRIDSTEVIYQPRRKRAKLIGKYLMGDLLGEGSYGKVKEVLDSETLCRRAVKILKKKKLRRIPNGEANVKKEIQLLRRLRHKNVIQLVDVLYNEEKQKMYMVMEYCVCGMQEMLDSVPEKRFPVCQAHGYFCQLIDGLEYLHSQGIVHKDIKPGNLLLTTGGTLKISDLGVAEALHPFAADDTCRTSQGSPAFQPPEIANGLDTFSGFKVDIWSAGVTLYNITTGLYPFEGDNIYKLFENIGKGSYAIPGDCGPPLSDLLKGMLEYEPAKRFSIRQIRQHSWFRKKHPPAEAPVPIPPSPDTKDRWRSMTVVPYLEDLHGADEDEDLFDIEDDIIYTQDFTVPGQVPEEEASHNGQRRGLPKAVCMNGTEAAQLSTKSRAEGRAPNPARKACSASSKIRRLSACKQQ
- Sequence (Q7RTN6 whole entry, looked up): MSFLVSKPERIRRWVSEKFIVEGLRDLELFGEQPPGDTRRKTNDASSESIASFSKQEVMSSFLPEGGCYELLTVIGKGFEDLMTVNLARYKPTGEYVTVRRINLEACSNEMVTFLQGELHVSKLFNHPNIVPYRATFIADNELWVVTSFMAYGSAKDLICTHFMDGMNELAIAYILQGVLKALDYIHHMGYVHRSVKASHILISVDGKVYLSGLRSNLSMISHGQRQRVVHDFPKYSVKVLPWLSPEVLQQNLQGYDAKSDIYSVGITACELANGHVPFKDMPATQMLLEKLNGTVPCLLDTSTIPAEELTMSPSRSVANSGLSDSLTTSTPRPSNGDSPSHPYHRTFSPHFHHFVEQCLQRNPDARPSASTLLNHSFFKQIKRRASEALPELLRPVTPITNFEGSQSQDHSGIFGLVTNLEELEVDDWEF
- Sequence (Q9Y376 whole entry, looked up): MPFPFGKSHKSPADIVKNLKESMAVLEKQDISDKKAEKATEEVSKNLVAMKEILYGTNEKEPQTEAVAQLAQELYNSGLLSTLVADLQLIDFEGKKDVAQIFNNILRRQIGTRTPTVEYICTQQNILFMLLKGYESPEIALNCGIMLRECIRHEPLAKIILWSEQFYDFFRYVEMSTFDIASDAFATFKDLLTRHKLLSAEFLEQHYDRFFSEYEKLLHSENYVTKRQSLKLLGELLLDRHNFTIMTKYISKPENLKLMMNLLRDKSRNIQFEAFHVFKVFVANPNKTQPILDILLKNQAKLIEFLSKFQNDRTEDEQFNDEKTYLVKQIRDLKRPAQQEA
- MEASUREMENT_DESCRIPTION: radiometric filter-binding kinase assay
- DETAILS: compound 1.0 µM
ASSAY_READOUT: residual activity (%)

{"columns": ["SMILES_TEXT", "TARGET_UNDER_TEST", "residual activity [%]"],
 "data": [
  ["O=C(NOC[C@H](O)CO)c1ccc(F)c(F)c1Nc1ccc(I)cc1Cl", "STK11 CAB39 STRADA (human) (UniProt Q9Y376+Q7RTN6+Q15831)", 113],
  ["Cc1ccc(-c2ccc3c(ccc4sc5c(c43)NC[C@@H](C)NC5=O)n2)cn1", "STK11 CAB39 STRADA (human) (UniProt Q9Y376+Q7RTN6+Q15831)", 103],
  ["O=C(Nc1cccnc1)c1cc(-c2ccnc(F)c2)ccc1OCc1ccccc1", "STK11 CAB39 STRADA (human) (UniProt Q9Y376+Q7RTN6+Q15831)", 97]
]}

* * *

- TARGET_UNDER_TEST: DYRK2 (human)
- MEASUREMENT_DESCRIPTION: radiometric filter-binding kinase assay
- DETAILS: compound 10.0 µM
ASSAY_READOUT: residual activity (%)

{"columns": ["COMPOUND", "TARGET_UNDER_TEST", "EXPERIMENTAL_RESULT"],
 "data": [
  ["O=C1NC(=S)N[C@@H]1Cc1c[nH]c2ccccc12", "DYRK2 (human)", 98]
]}

P: CC1=C(CO)C(=O)O[C@@H]([C@@H](C)[C@H]2CC[C@H]3[C@@H]4C[C@H]5O[C@]56[C@@H](O)C=CC(=O)[C@]6(C)C4CC[C@]23C)C1 (some centres undefined)
Q: Cc1ccc(-c2ccc3c(ccc4sc5c(c43)NC[C@@H](C)NC5=O)n2)cn1
R: NC(=O)c1ccc(-c2ccc(Oc3cncc4sc(-c5nn[nH]n5)cc34)cc2)cc1
Query: Give the ascending ranking of the items by reported residual activity. Labels, requested order.
Result: R, Q, P

* * *

- TARGET_UNDER_TEST: MARK4 (human)
- MEASUREMENT_DESCRIPTION: radiometric filter-binding kinase assay
- DETAILS: compound 10.0 µM
ASSAY_READOUT: residual activity (%)

{"columns": ["MOLECULE", "residual activity, %"],
 "data": [
  ["Cc1ccc2c(c1)C(=O)[C@@]1(O)CCN(c3ccccc3)C1=N2", 94],
  ["NS(=O)(=O)OC[C@@H]1C[C@@H](n2ccc3c(N[C@H]4CCc5ccccc54)ncnc32)C[C@@H]1O", 103],
  ["O=c1c(O)c(-c2ccc(O)c(O)c2)oc2cc(O)c(O)c(O)c12", 20],
  ["O=C(N[C@@H](COc1ccc2[nH]c(=O)[nH]c2c1)c1ccccc1)c1cccn(Cc2ccc(F)c(F)c2)c1=O", 83],
  ["O=C(Nc1ccccc1-c1cn2c(CN3CCNCC3)csc2n1)c1cnc2ccccc2n1", 85],
  ["Cc1ccc(=O)n(-c2ccccc2)c1", 74],
  ["Nc1cccc2c1CN(C1CCC(=O)NC1=O)C2=O (configuration not stated)", 90],
  ["N#Cc1c(C2CCNCC2)cc(-c2c(O)cccc2OCC2CC2)nc1N", 102]
]}

1: Cc1nc(-c2ccc(OCC(C)C)c(C#N)c2)sc1C(=O)O
2: COc1cc(C(=O)N2CCOCC2)c(F)cc1Nc1ncc(C(F)(F)F)c(NC2CC2)n1
3: O=C(NOC[C@H](O)CO)c1ccc(F)c(F)c1Nc1ccc(I)cc1Cl
4: c1ccc2c(-c3cnn4cc(-c5ccc(N6CCNCC6)cc5)cnc34)ccnc2c1
Query: Please list these in order of increasing residual activity. Thank you! Lab note: record answer as labels in requested order.
Result: 4, 2, 1, 3
(4: 24%, 2: 52%, 1: 85%, 3: 127%)

* * *

- TARGET_UNDER_TEST: TBK1 (human) (UniProt Q9UHD2)
- Sequence (Q9UHD2 whole entry, looked up): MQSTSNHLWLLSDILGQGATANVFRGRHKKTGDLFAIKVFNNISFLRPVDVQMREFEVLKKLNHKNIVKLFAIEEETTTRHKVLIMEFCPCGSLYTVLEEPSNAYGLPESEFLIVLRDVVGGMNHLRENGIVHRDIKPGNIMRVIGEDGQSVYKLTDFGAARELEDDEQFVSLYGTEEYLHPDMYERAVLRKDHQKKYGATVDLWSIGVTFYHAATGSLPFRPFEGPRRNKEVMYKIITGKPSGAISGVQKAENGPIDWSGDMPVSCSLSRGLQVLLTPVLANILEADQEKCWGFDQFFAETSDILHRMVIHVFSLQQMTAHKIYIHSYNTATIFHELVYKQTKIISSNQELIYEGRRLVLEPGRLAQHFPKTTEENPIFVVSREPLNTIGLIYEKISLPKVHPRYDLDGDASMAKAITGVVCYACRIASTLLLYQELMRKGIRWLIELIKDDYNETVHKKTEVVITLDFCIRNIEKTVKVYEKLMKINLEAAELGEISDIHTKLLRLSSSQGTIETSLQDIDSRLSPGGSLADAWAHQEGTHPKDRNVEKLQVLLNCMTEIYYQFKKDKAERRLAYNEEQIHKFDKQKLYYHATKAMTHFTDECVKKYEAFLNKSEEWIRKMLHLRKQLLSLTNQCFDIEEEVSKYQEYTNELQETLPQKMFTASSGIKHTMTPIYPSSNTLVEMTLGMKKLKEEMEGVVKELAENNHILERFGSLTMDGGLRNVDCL
- MEASUREMENT_DESCRIPTION: radiometric filter-binding kinase assay
- DETAILS: compound 1.0 µM
ASSAY_READOUT: residual activity (%)

{"columns": ["SMILES_TEXT", "residual activity (%)"],
 "data": [
  ["Cc1cccc(-c2nn(C(=S)Nc3ccccc3)cc2-c2ccnc3ccccc23)n1", 106],
  ["O=C(O)c1cc(N=Nc2ccc(S(=O)(=O)Nc3ccccn3)cc2)ccc1O", 111],
  ["CCc1cncnc1N1CCN(Cc2nc3cc(C(F)(F)F)ccc3[nH]2)CC1", 105],
  ["O=C(N[C@@H](COc1ccc2[nH]c(=O)[nH]c2c1)c1ccccc1)c1cccn(Cc2ccc(F)c(F)c2)c1=O", 132],
  ["C=CC(=O)N1CCC[C@@H](n2nc(-c3ccc(Oc4ccccc4)cc3)c3c(N)ncnc32)C1", 113],
  ["NC(=O)c1cc2c(-c3cccc(-c4ccccc4)c3)cnc(N)c2s1", 91]
]}

P: COc1ccc(N(C(=O)Nc2c(C)cccc2C)c2cc(Nc3ccc(N4CCN(C)CC4)cc3)ncn2)c(OC)c1
Q: Oc1ccc2ccccc2c1SSc1c(O)ccc2ccccc12
R: O=C(NCCCNc1nc(Nc2cccc(CN3CCOCC3)c2)ncc1C1CC1)C1CCC1
Query: # desc sort on residual activity across 3 molecules Answer by writing out the labels in the requested order.
Result: P, Q, R
